Test system: muMax20 (Max(13-93) K31hArg/K57hArg, M65Nle)
Assay: PBM 8-mer E-score (E-score (rank enrichment, -0.5 to 0.5)); higher = stronger preferential binding
Over roughly 33,000 sequences, “E-score (rank enrichment, -0.5 to 0.5)” has its median near -0.0068; the highest 2% begin near 0.24. The sample as a whole holds a higher share of the highest values than the screen did.
Quick rule: PBM 8-mer E-score of at least 0.1 means y, below that means n.

input: Could you please find out whether `AATTGTAA` has PBM 8-mer E-score that meets 0.1 or exceeds it?
output: y

input: Could you please find out whether `CGCTCGAA` has PBM 8-mer E-score that meets 0.1 or exceeds it?
output: n

input: Could you please find out whether `AAGAGCAC` has PBM 8-mer E-score that meets 0.1 or exceeds it?
output: n

input: Could you please find out whether `TATTGTAA` has PBM 8-mer E-score that meets 0.1 or exceeds it?
output: y

input: Could you please find out whether `CAAACGTC` has PBM 8-mer E-score that meets 0.1 or exceeds it?
output: n

input: Could you please find out whether `ATGCCAAA` has PBM 8-mer E-score that meets 0.1 or exceeds it?
output: y

input: Could you please find out whether `AAATGTAA` has PBM 8-mer E-score that meets 0.1 or exceeds it?
output: y

input: Could you please find out whether `GAATGTAA` has PBM 8-mer E-score that meets 0.1 or exceeds it?
output: n

input: Could you please find out whether `TAATGTAA` has PBM 8-mer E-score that meets 0.1 or exceeds it?
output: y

input: Could you please find out whether `AACTTACG` has PBM 8-mer E-score that meets 0.1 or exceeds it?
output: n

input: Could you please find out whether `GAATGTGA` has PBM 8-mer E-score that meets 0.1 or exceeds it?
output: n

====

Would you mind telling me the reported PBM 8-mer E-score of each entry?
Tested on: muMax20 (Max(13-93) K31hArg/K57hArg, M65Nle)
Assay: PBM 8-mer E-score (E-score (rank enrichment, -0.5 to 0.5)); higher = stronger preferential binding
In all, about 33,000 sequences were measured (“E-score (rank enrichment, -0.5 to 0.5)”: median about -0.0068, highest 2% from about 0.24 on). Shown is part of a subset that was picked to be rich in the highest values.
# answer = number (no unit)

PBM 8-mer E-score in this record for `ATTAACAG` : 0.0428

PBM 8-mer E-score in this record for `GTTAACTA` : 0.213

PBM 8-mer E-score in this record for `GGGCCACA` : -0.0874

PBM 8-mer E-score in this record for `TCTGACAA` : -0.0236

PBM 8-mer E-score in this record for `AAAGATAA` : 0.237

PBM 8-mer E-score in this record for `TAAGATAA` : 0.0507

PBM 8-mer E-score in this record for `CATATTAG` : 0.121

PBM 8-mer E-score in this record for `AAAGATAC` : 0.145

PBM 8-mer E-score in this record for `AGTTTATG` : 0.0668

PBM 8-mer E-score in this record for `AACAATAG` : 0.0278

PBM 8-mer E-score in this record for `GGGCGGGA` : 0.256

PBM 8-mer E-score in this record for `AACGGCAC` : -0.107

PBM 8-mer E-score in this record for `ATTAACAC` : 0.287

PBM 8-mer E-score in this record for `ATTTGTCA` : 0.123

PBM 8-mer E-score in this record for `AATATTGC` : 0.138

PBM 8-mer E-score in this record for `AACTCCAG` : -0.117

PBM 8-mer E-score in this record for `AAAGATGT` : 0.203

PBM 8-mer E-score in this record for `CATAAGAG` : 0.0912

PBM 8-mer E-score in this record for `CCTACCCC` : 0.0896

PBM 8-mer E-score in this record for `AGGGCAAA` : -0.0293

PBM 8-mer E-score in this record for `CTCTCTCA` : -0.0954

PBM 8-mer E-score in this record for `AATATTAA` : 0.304

PBM 8-mer E-score in this record for `CTTAACAC` : 0.149

PBM 8-mer E-score in this record for `CCACCGCA` : -0.117

PBM 8-mer E-score in this record for `GCTAGAGC` : -0.122

PBM 8-mer E-score in this record for `ACTAACAC` : 0.0454

PBM 8-mer E-score in this record for `CGGCCAAA` : -0.227

PBM 8-mer E-score in this record for `CTCTCCCA` : 0.00928

PBM 8-mer E-score in this record for `GTCTGCCA` : -0.165

PBM 8-mer E-score in this record for `AAAGATAG` : 0.0409

PBM 8-mer E-score in this record for `ACTATTAA` : 0.149

PBM 8-mer E-score in this record for `AATAGAAC` : 0.0563

PBM 8-mer E-score in this record for `GGCGGGAA` : -0.0111

PBM 8-mer E-score in this record for `ACGGTGAT` : 0.0166

PBM 8-mer E-score in this record for `GCCATATA` : 0.0868

PBM 8-mer E-score in this record for `ATCGGACG` : -0.0422

PBM 8-mer E-score in this record for `AATATTGT` : 0.256

PBM 8-mer E-score in this record for `CGTTACAC` : -0.0405

PBM 8-mer E-score in this record for `CAGGATTA` : 0.0457

PBM 8-mer E-score in this record for `GCCAATTA` : -0.00292

PBM 8-mer E-score in this record for `ACACAGGA` : 0.0105

PBM 8-mer E-score in this record for `AGGCGGGA` : 0.0523

PBM 8-mer E-score in this record for `ATCCACCA` : 0.068

PBM 8-mer E-score in this record for `ATTACAGA` : 0.0555

PBM 8-mer E-score in this record for `TATATTAA` : 0.179

PBM 8-mer E-score in this record for `GGTCCAAC` : -0.234

====

Test system: muMax20 (Max(13-93) K31hArg/K57hArg, M65Nle)
Assay: PBM 8-mer E-score (E-score (rank enrichment, -0.5 to 0.5)); higher = stronger preferential binding
Whole data set: some 33,000 sequences, median “E-score (rank enrichment, -0.5 to 0.5)” near -0.0068, cut for the highest 2% near 0.24. The full list was thinned out, with the highest values kept by preference.
Would you mind telling me the reported PBM 8-mer E-score of each entry?
# answer = number (no unit)

PBM 8-mer E-score of `GCACGTTA` , assay on muMax20 (Max(13-93) K31hArg/K57hArg, M65Nle), is 0.0863

PBM 8-mer E-score of `CCACGTGA` , assay on muMax20 (Max(13-93) K31hArg/K57hArg, M65Nle), is 0.43

PBM 8-mer E-score of `AAACTCCA` , assay on muMax20 (Max(13-93) K31hArg/K57hArg, M65Nle), is -0.0494

PBM 8-mer E-score of `AATTACAA` , assay on muMax20 (Max(13-93) K31hArg/K57hArg, M65Nle), is 0.209

PBM 8-mer E-score of `CCTCGCTC` , assay on muMax20 (Max(13-93) K31hArg/K57hArg, M65Nle), is -0.0787

PBM 8-mer E-score of `CCCTTTCG` , assay on muMax20 (Max(13-93) K31hArg/K57hArg, M65Nle), is -0.143

PBM 8-mer E-score of `CGCGCTCA` , assay on muMax20 (Max(13-93) K31hArg/K57hArg, M65Nle), is -0.127

PBM 8-mer E-score of `CCACGTTA` , assay on muMax20 (Max(13-93) K31hArg/K57hArg, M65Nle), is 0.246

PBM 8-mer E-score of `CCACGTCC` , assay on muMax20 (Max(13-93) K31hArg/K57hArg, M65Nle), is -0.0476

PBM 8-mer E-score of `CCACGTGG` , assay on muMax20 (Max(13-93) K31hArg/K57hArg, M65Nle), is 0.475

PBM 8-mer E-score of `AAGCACTT` , assay on muMax20 (Max(13-93) K31hArg/K57hArg, M65Nle), is 0.132

PBM 8-mer E-score of `CATTAGAA` , assay on muMax20 (Max(13-93) K31hArg/K57hArg, M65Nle), is 0.0939

PBM 8-mer E-score of `AATGAAAA` , assay on muMax20 (Max(13-93) K31hArg/K57hArg, M65Nle), is 0.13

PBM 8-mer E-score of `ACTCCTAT` , assay on muMax20 (Max(13-93) K31hArg/K57hArg, M65Nle), is 0.0559

PBM 8-mer E-score of `CTACGTGA` , assay on muMax20 (Max(13-93) K31hArg/K57hArg, M65Nle), is -0.0185

PBM 8-mer E-score of `GAGGTGGA` , assay on muMax20 (Max(13-93) K31hArg/K57hArg, M65Nle), is -0.138

PBM 8-mer E-score of `CACTATAA` , assay on muMax20 (Max(13-93) K31hArg/K57hArg, M65Nle), is 0.0282

PBM 8-mer E-score of `GCGAATCA` , assay on muMax20 (Max(13-93) K31hArg/K57hArg, M65Nle), is -0.157

PBM 8-mer E-score of `ATCTGACC` , assay on muMax20 (Max(13-93) K31hArg/K57hArg, M65Nle), is 0.00987

PBM 8-mer E-score of `CACTACAA` , assay on muMax20 (Max(13-93) K31hArg/K57hArg, M65Nle), is 0.152

PBM 8-mer E-score of `TATTACAA` , assay on muMax20 (Max(13-93) K31hArg/K57hArg, M65Nle), is 0.236

PBM 8-mer E-score of `TACTACAA` , assay on muMax20 (Max(13-93) K31hArg/K57hArg, M65Nle), is 0.286
